System: MCF7
Assay: NCI tumour cell line growth inhibition, 48 h
The source made the active and inactive calls. Cut-off read from the data, not from the text of the source: active = GI50 up to about 1.1 µM and inactive = higher.
In this exercise, the only acceptable responses are active, inactive

input: Test call for this compound, please: COC1(OC)CC(CO)(COc2cc(Cl)nc(N)n2)C1
output: inactive

input: Test call for this compound, please: Cc1nn(C(=O)Cc2ccccc2)c2c1C(c1ccc(O)cc1O)SC(=N)N2 (stereo not given)
output: inactive

input: Test call for this compound, please: COc1ccc2c(Cc3c4ccccc4cc4ccccc34)cncc2c1O
output: active

input: Test call for this compound, please: Clc1cccc(/C=c2\nc(-c3ccccc3)n3c2nc2ccccc23)c1
output: inactive

input: Test call for this compound, please: COc1cc([C@@H]2c3cc4c(cc3[C@@H](Nc3ccc(NC(=O)c5cc(NC(=O)c6cc([N+](=O)[O-])cn6C)cn5C)cc3)[C@H]3COC(=O)[C@H]23)OCO4)cc(OC)c1O
output: active

* * *

Record form. Attribute: GI50. Fill in for each entry.
Tested on: HL-60
Assay: NCI tumour cell line growth inhibition, 48 h
Active and inactive are the calls of the source. Rule as the data show it: active = GI50 up to about 1.1 µM and inactive = higher.

input: Entry CN(C)CC1CCC/C(=C\c2ccc(OC(=O)c3ccc(Cl)cc3)cc2)C1=O (centres undefined) needs its GI50 filled in; supply it.
output: 1.32 µM (inactive)

input: Entry FC(F)(F)c1ccc2c(c1)nc1n2C(c2c(Cl)cccc2Cl)SC1 (centres undefined) needs its GI50 filled in; supply it.
output: 23.8 µM (inactive)

input: Entry COc1nc2c(N3CCCC3)nc(N3CCNCC3)nc2nc1NCc1ccccc1 needs its GI50 filled in; supply it.
output: 1.68 µM (inactive)

input: Entry CC(C)c1cc(C(C)C)c(P2(=O)CC3C(Cl)(Cl)C3(C)C2)c(C(C)C)c1 (centres undefined) needs its GI50 filled in; supply it.
output: 4.2 µM (inactive)

input: Entry CC(=O)c1[nH]c(Nc2ccc(C)cc2)c(C(=S)Nc2ccccc2)c1N needs its GI50 filled in; supply it.
output: 15.8 µM (inactive)

input: Entry COc1nc(C(Cl)(Cl)Cl)c(Cl)c(OC)c1Cl [PENCLOMEDINE] needs its GI50 filled in; supply it.
output: 7.46 µM (inactive)

input: Entry NN=C(S)Nc1cccc(Cl)c1 needs its GI50 filled in; supply it.
output: > 100 µM (inactive)

input: Entry COc1ccc2c(c1)[n+]([O-])c(C(C)=O)c(C)[n+]2[O-] needs its GI50 filled in; supply it.
output: > 100 µM (inactive)

input: Entry Clc1cc(Cl)cc(C2SCc3nc4ccccc4n32)c1 (centres undefined) needs its GI50 filled in; supply it.
output: 4.31 µM (inactive)

* * *

Test system: RXF 393
Experiment: NCI tumour cell line growth inhibition, 48 h
The source made the active and inactive calls. Rule as the data show it: active = GI50 up to about 1.1 µM and inactive = higher.
Record form. Attribute: GI50. Fill in for each entry.

input: Entry N=C(N)NCC(N)C(=O)O (configuration not stated) needs its GI50 filled in; supply it.
output: > 100 µM (inactive)

input: Entry CCOP(=O)(OCC)/C(C#N)=C\c1cccc2ccccc12 needs its GI50 filled in; supply it.
output: 31.6 µM (inactive)

input: Entry COc1ccc(C(=O)c2c3cc(OC)c(OC)c(OC)c3cc[n+]2C)cc1 needs its GI50 filled in; supply it.
output: 39.6 µM (inactive)

input: Entry O=C1CC(=O)NC(NN2C(=O)CSC2c2ccccc2)=N1 (configuration not stated) needs its GI50 filled in; supply it.
output: > 100 µM (inactive)

input: Entry Cc1ccc2ccc(=O)oc2c1 needs its GI50 filled in; supply it.
output: > 100 µM (inactive)

input: Entry COC(=O)CC1(O)C(/C=C/c2ccccc2)C(C(=O)OC)C(=O)C(C(=O)OC)C1C(=O)OC (configuration not stated) needs its GI50 filled in; supply it.
output: > 100 µM (inactive)

input: Entry O=C1c2ccccc2C2(c3ccc(Cl)cc3)N[C@H]3CCCC[C@@H]3N12 (some centres not stated) needs its GI50 filled in; supply it.
output: 97.9 µM (inactive)

input: Entry CCc1nc2c(n1CC)C(=O)c1ccccc1C2=O needs its GI50 filled in; supply it.
output: 19.8 µM (inactive)

input: Entry Nc1nc(SCc2ccccc2[N+](=O)[O-])c2[nH]cnc2n1 needs its GI50 filled in; supply it.
output: > 62.8 µM (inactive)

input: Entry CSC1(C)C(=O)Nc2c(OCc3ccccc3)cc([N+](=O)[O-])cc21 (configuration not stated) needs its GI50 filled in; supply it.
output: 51.3 µM (inactive)

input: Entry O=C1Nc2ccccc2C1S(=O)(=O)c1ccccc1 (configuration not stated) needs its GI50 filled in; supply it.
output: > 100 µM (inactive)

input: Entry CC(=O)c1[nH]c(Nc2ccc(C)cc2)c(C(=S)Nc2ccccc2)c1N needs its GI50 filled in; supply it.
output: 13.3 µM (inactive)
